run_description: Luminescence Cell-Based Dose Response HTS to Identify Inhibitors of 5'UTR Stem-Loop Driven Prion Protein mRNA Translation in H4 Neuroglioblastoma Cells. [Related pubchem assays: 1827 (Project Summary), 1813 (Primary HTS)]
Type: functional
Active and inactive are the calls of the source.

compound: CCOC(=O)c1ccc(NC2c3ccccc3C(=O)N2c2cccnc2)cc1 (stereo unspecified)
EC50: > 120 µM (not active)

compound: C/C(=N\NC(=O)COc1ccccc1-c1ccccc1)c1ccc(O)cc1O
EC50: 9.87 µM (active)

compound: COc1ccc2cc1Oc1ccc(cc1)CC1c3c(cc(OC)c4c3Oc3cc5c(cc3O4)CCNC5C2)CCN1C (stereo unspecified)
EC50: 8.28 µM (active)

compound: COc1cc(Br)cc(/C=N/NC(=O)Cc2ccc(C(F)(F)F)cc2[N+](=O)[O-])c1O
EC50: 12.6 µM (active)

compound: O=C(N/N=C/c1ccc(Cl)cc1)c1sccc1OCc1ccc(F)cc1
EC50: < 0.1 µM (active)

compound: O=C1CC(c2cc(Br)ccc2F)c2cc3c(cc2N1)CCC3 (stereo unspecified)
EC50: 2.01 µM (active)

compound: Cc1nc2ccccc2c(=O)n1NC(=O)C1CCC(C(C)(C)C)CC1 (stereo unspecified)
EC50: > 120 µM (not active)

compound: O=C(CCCN1C(=O)/C(=C/c2ccccc2Cl)SC1=S)NNC(=O)c1ccc(Cl)cc1Cl
EC50: 7.86 µM (active)

compound: Cc1ccc(-c2nn(-c3ccccc3)cc2CSC(=N)N)cc1
EC50: > 120 µM (not active)

compound: CCCOc1ccc(C(=O)NNC(=S)NC(=O)c2ccccc2)cc1
EC50: 14.5 µM (active)

compound: O=[N+]([O-])c1ccc(O)c(-c2nc(-c3ccccc3)c(-c3cccs3)[nH]2)c1
EC50: > 120 µM (not active)

* * *

run_description: Luminescence Cell-Based Dose Retest to Confirm Inhibitors of Cancer Stem Cells. [Related pubchem assays (depositor defined):AID2717, AID2721]
Type: functional
test_settings: Homo sapiens
The source made the active and inactive calls.
endpoint: AC50

compound: CC1=C(C(=O)OC2CCCCC2)C(c2ccc(C)o2)C2=C(O)CC(C)(C)CC2=N1 (stereo unspecified)
val: 1.38 µM (active)

compound: CCc1ccc(-c2cc(C(=O)N/N=C/c3c[nH]c4ccccc34)[nH]n2)cc1
val: 2.97 µM (active)

compound: Cc1nc(NC(=O)CC(C)C)sc1-c1csc(Nc2ccc(Cl)cc2Cl)n1
val: 1.85 µM (active)

compound: O=[N+]([O-])c1ccc(O)c(-c2nc(-c3ccccc3)c(-c3cccs3)[nH]2)c1
val: 0.662 µM (active)

compound: O=C(/C=C/c1ccccc1)NC(NC(=S)Nc1cc(Cl)ccc1Cl)C(Cl)(Cl)Cl (stereo unspecified)
val: 0.993 µM (active)

compound: c1ccc(-c2cc3c(NCC4COc5ccccc5O4)ncnc3s2)cc1 (stereo unspecified)
val: 3.96 µM (active)

* * *

Overview of reported IC50 across a group of compounds:
tested_on: High affinity choline transporter 1 (Homo sapiens)
Sequence (Q9GZV3 whole entry): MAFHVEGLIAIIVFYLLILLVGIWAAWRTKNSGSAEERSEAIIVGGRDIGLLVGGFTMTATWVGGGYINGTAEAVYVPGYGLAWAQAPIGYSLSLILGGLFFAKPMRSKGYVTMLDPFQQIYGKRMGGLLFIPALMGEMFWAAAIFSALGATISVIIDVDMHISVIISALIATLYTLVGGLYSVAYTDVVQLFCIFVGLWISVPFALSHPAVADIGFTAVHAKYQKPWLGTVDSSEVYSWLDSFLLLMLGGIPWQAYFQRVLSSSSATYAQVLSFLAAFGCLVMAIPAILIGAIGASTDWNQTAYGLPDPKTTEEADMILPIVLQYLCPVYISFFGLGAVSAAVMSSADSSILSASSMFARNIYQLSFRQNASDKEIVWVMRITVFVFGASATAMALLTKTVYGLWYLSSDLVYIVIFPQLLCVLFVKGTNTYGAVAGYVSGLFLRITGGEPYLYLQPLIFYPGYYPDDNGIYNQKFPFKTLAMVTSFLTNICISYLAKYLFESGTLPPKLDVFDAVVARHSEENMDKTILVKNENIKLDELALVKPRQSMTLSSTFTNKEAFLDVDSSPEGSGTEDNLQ
run_description: CHT inhibitors, dose response, cell-based, 5-point CRC, membrane potential dye (AID 504840)
Assay type: functional
Calls of active or inactive are those of the source.
endpoint: IC50

compound: O=S(=O)(c1ccc(N2CCCC2)nc1)N1CCCC1
val: 8.93 µM (active)

compound: COC(=O)/C(=C/c1c[nH]c2ccccc12)[N+](=O)[O-]
val: 0.724 µM (active)

compound: Cc1ccc(NC(S)=NNC(=O)C2CC2c2ccc(C)cc2)cc1 (configuration not stated)
val: 13.2 µM (active)

compound: CN(C)CCCn1c(=O)n(C2CCCCC2)c(=O)c2c3c(sc21)CCCCC3
val: 8.71 µM (active)

compound: COc1ccc(C(=O)NC(C)c2nccs2)cc1OC1CCN(C(C)C)CC1 (configuration not stated)
val: 12.9 µM (active)

compound: Cc1nn(-c2ccccc2)c(C)c1C(=O)OCC(=O)NC(=O)NC1CCCC1
val: 14.5 µM (active)

compound: CCc1cc(CC)c(/C=N/NC(N)=O)c(CC)c1/C=N/NC(N)=O
val: 11.1 µM (active)

Data origin: ChEMBL document CHEMBL1201862
